For each record, write down the corresponding cell viability.
System: SW480
Assay: cell viability (CellTiter-Glo) relative to plate median (fraction of plate median); higher = more viable cells
Conditions: 5 µM; treatment time 24 h; reporter: 7TFP

input: Which measured cell viability belongs to CC(=O)N(O)CCCCCNC(=O)CCC(=O)N(O)CCCCCNC(=O)CCC(=O)N(O)CCCCCN , tested on SW480?
output: 0.89

input: Query cell viability on SW480 for C[N+](C)(C)CCOC(N)=O
output: 0.993

input: cell viability of OCCN1CCN(CCCN2c3ccccc3Sc3ccc(Cl)cc32)CC1 on SW480?
output: 0.983

input: Reported cell viability for SW480, given CCCCCCCCCCCC[C@H](O)[C@@H]1CC[C@@H]([C@@H](O)CCCCCCCC(=O)CC[C@@H](O)CC2=C[C@H](C)OC2=O)O1 [annocherin] ?
output: 0.921

input: Identify the measured cell viability of O=C1NCC(=O)N2CCCC12 (stereo not drawn) [Cyclo(glycylprolyl)] for SW480.
output: 0.959

input: Return cell viability measured with SW480 given this compound: CC(CCc1ccccc1)NCC(O)c1ccc(O)c(C(N)=O)c1 (stereo not drawn)
output: 0.943

input: Observed cell viability on SW480 for CCOc1ccc2nc3cc(N)ccc3c(N)c2c1 , please.
output: 0.999

input: Request body: readout cell viability, system SW480, query C[C@]12CC[C@@H]3c4ccc(O)cc4CC[C@H]3[C@@H]1CC[C@@H]2OC(=O)CCC1CCCC1 . Return the value.
output: 0.967

input: Return cell viability measured with SW480 given this compound: CC(C)[N+]1(C)[C@@H]2CC[C@H]1C[C@@H](OC(=O)C(CO)c1ccccc1)C2 (stereo partly drawn)
output: 0.953

input: Lab request: please report cell viability under test system SW480 for CC(=O)OCC(=O)[C@H]1CC[C@H]2[C@@H]3CC=C4C[C@@H](O)CC[C@]4(C)[C@H]3CC[C@]12C
output: 1.04

input: # get_value(readout= cell viability, system= SW480) for O=c1c(-c2cc(O)c(O)c(O)c2)coc2cc(O)c(O)c(O)c12
output: 1.04

input: Record lookup: for SW480, what cell viability belongs to CC(=O)O[C@H]1C[C@@H](OC(C)=O)C(C)(C)[C@@H]2C[C@@H](OC(C)=O)[C@@]3(C)C4=CC(=O)O[C@@H](c5ccoc5)[C@]4(C)CC[C@@H]3[C@@]12C ?
output: 1.05

input: Request body: readout cell viability, system SW480, query CC(=O)[C@H]1CC[C@H]2[C@@H]3CCC4=CC(=O)CC[C@]4(C)[C@H]3CC[C@]12C . Return the value.
output: 0.992

input: Please provide the recorded cell viability for CC1(C)CC[C@]2(C(=O)O)CC[C@]3(C)C(=CCC4[C@@]5(C)CC[C@@H](O)C(C)(C)C5CC[C@]43C)C2C1 (stereo partly drawn) , tested on SW480.
output: 1.08

input: GET /values?readout=cell viability&system=SW480&item= CCC/C=C1\OC(=O)C2=C1CCC=C2
output: 0.955

input: Record CCCCCNC(=N)N/N=C/c1c[nH]c2ccc(OC)cc12 : what is its cell viability with SW480?
output: 1.04

input: # query: cell viability | item COc1ccc2cc3[n+](cc2c1OC)CCc1cc2c(cc1-3)OCO2 | system: SW480
output: 1.02

input: Fill in the recorded cell viability for this compound, with SW480 as test system: CC(=O)OCC(OC(C)=O)C(OC(C)=O)C(OC(C)=O)C(OC(C)=O)C(COC(C)=O)OC(C)=O (stereo not drawn)
output: 1.04

input: What reported cell viability corresponds to COc1ccc(C(=O)CC(=O)O)c2c1C=CC(C)(C)O2 on SW480?
output: 0.961

input: For the record O=c1cc(CO)occ1O [Kojic acid (Biofocus)] , what value of cell viability is listed for SW480?
output: 0.994

input: Provide the documented cell viability with SW480 as the system for CO[C@H]1/C=C/O[C@@]2(C)Oc3c(C)c(O)c4c(O)c(c5c(nc6cc(C)ccn65)c4c3C2=O)NC(=O)/C(C)=C\C=C\[C@H](C)[C@H](O)[C@@H](C)[C@@H](O)[C@@H](C)[C@H](OC(C)=O)[C@@H]1C
output: 1.04

input: Form field: cell viability recorded for C/C=C/CCC(=O)c1cc(C)c(O)cc1O [Sohirnone A] with SW480 (enter value)
output: 0.959

input: Entry CCOC(=O)CCCCCCCCCCCCC1C=CCC1 (stereo not drawn) , system SW480: what cell viability was measured?
output: 0.965

input: Could you share what cell viability was measured for O.O.O.O.O=C([O-])CC(O)(CC(=O)[O-])C(=O)[O-].[Li+].[Li+].[Li+] , tested on SW480?
output: 0.966

input: Observed cell viability on SW480 for COc1cnc(NS(=O)(=O)c2ccc(N)cc2)nc1 , please.
output: 1.03

input: Request: cell viability, test system SW480, entry Cc1c(Nc2ncccc2C(=O)O)cccc1C(F)(F)F
output: 1.04

input: Query for SW480: what cell viability does the record show for CO[C@H]1C=C[C@@]23c4cc5c(cc4CN(C[C@@H]2O)[C@H]3C1)OCO5 ?
output: 0.862

input: I'm curious: which cell viability was measured for Oc1cccc2nc3c(O)cccc3nc12 [1,6-Phenazinediol] tested on SW480?
output: 1.01

input: Missing value: cell viability, SW480, entry COc1cc2occ(-c3ccc(O)cc3)c(=O)c2cc1O [Kakkatin] . Fill in?
output: 1.01

input: Recall the recorded cell viability for CC[C@H]1OC(=O)[C@H](C)[C@@H](O[C@H]2C[C@@](C)(OC)[C@@H](O)[C@H](C)O2)[C@H](C)[C@@H](O[C@@H]2O[C@H](C)C[C@H](N(C)C)[C@H]2O)[C@](C)(OC)C[C@@H](C)C(=O)[C@H](C)[C@@H](O)[C@]1(C)O with SW480 and state it.
output: 1.05

input: Give the reported cell viability for CC(=O)NO (system: SW480).
output: 1.05

input: Given the entry Cc1occc(=O)c1O , what cell viability was observed with SW480?
output: 0.936

input: Enter reported cell viability observed with SW480 for O=c1c(-c2ccc(O)cc2)coc2cc(O)ccc12 [Daidzein (Biofocus)]
output: 1.05

input: // lookup cell viability | system=SW480 | key= COc1cccc(OC)c1C(=O)N[C@@H]1C(=O)N2[C@@H]1SC(C)(C)[C@@H]2C(=O)O
output: 1.07

input: Form field - read-out: cell viability; system: SW480; submitted item: CC(=O)CCCCn1c(=O)c2c(ncn2C)n(C)c1=O
output: 0.94

input: Find the measured cell viability: item CCNC(=O)CC[C@H](N)C(=O)O , target or system SW480.
output: 0.998

input: Report cell viability for CC(=O)N[C@@H](Cc1c[nH]c2ccccc12)C(N)=O tested on SW480.
output: 1.07

input: # get_value(readout= cell viability, system= SW480) for O=c1cc(-c2ccc(O)cc2)oc2cc(O[C@@H]3O[C@H](CO)[C@@H](O)[C@H](O)[C@H]3O[C@@H]3OC[C@](O)(CO)[C@H]3O)cc(O)c12
output: 1

---

System: HCT116
Assay: cell viability (CellTiter-Glo) relative to plate median (fraction of plate median); higher = more viable cells
Conditions: 5 µM; treatment time 24 h; reporter: TCF4/Wnt
endpoint: cell viability

input: I'm curious: which cell viability was measured for CNc1ccccc1C(=O)N1CCc2c([nH]c3ccccc23)C1=O tested on HCT116?
output: 0.996

input: Provide value of cell viability for this record tested with HCT116: CO/N=C(\C(=O)N[C@@H]1C(=O)N2C(C(=O)O)=C(COC(C)=O)CS[C@H]12)c1csc(N)n1
output: 1.07

input: GET /values?readout=cell viability&system=HCT116&item= COC(=O)CC[C@@H](C)[C@H]1CC[C@H]2[C@@H]3[C@H](O)C[C@@H]4C[C@H](O)CC[C@]4(C)[C@H]3C[C@H](O)[C@]12C
output: 1.06

input: cell viability of CC(N)CCCC(C)(C)O (centres undefined) on HCT116?
output: 0.955

input: Form field: cell viability recorded for CSc1ccc2c(c1)N(CCC1CCCCN1C)c1ccccc1S2 (centres undefined) with HCT116 (enter value)
output: 1.02

input: Entry CC(C)=CCC[C@](C)(O)C1CC=C(C)CC1 (some centres undefined) , system HCT116: what cell viability was measured?
output: 0.973

input: State its cell viability on HCT116: C[C@@H]1C/C=C/C=C/C=C/C=C/[C@H](O[C@@H]2O[C@H](C)[C@@H](O)[C@H](N)[C@@H]2O)C[C@@H]2O[C@](O)(C[C@@H](O)C[C@H]3O[C@@H]3/C=C/C(=O)O1)C[C@H](O)[C@H]2C(=O)O
output: 0.915

input: Lookup: cell viability / HCT116 / Oc1ccc(Cl)c2cccnc12
output: 0.988

input: HCT116 / cell viability / COc1cc(OC)c2c(=O)c(-c3ccccc3)coc2c1 : value?
output: 1.04

Values were extracted from the supplement of paper PMC6522484.
